# System Tested: T1, Spy wild type (Escherichia coli K-12 substr. MG1655, UniProt P77754 24-161)
# T1 construct: also called WT; source: E. coli BL21 (DE3), purified (Ni-NTA, cation exchange, SEC); not shown: His6, N-terminal, cleaved; SUMO, N-terminal, cleaved
# T1 sequence (looked up): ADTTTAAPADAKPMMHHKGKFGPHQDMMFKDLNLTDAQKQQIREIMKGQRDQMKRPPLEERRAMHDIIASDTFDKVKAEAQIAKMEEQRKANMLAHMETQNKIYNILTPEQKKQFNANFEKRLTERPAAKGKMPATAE
# Procedure Text: BLI; Octet RED96; biotinylated client loaded on streptavidin sensors, dipped into Spy or Spy variants (0.25, 0.5, 1, 1.5, 2 uM) in 40 mM HEPES, 150 mM NaCl, pH 7.5; kon from kobs against [Spy], Kd = koff/kon
# Condition Set: both partners purified
Recorded Metric: pKd
pKd is defined as minus the log10 of a concentration measured in mol/L.

(Q) Entry Im7 H40W L53A I54A (natural protein, biotin (EZ-link NHS-biotin, 1:1 molar ratio of biotin to protein), Im7, colicin E7 immunity protein (gene ceiE7), partially folded mutant H40W L53A I54A; The methods say only that Im7 variants were purified by a similar procedure to Spy (His6-SUMO tag removed); also called Im7AAW; biotin-labeled Im7AAW; source: purified by a similar procedure to Spy) MELKNSISDYTEAEFVQLLKEIEKENVAATDDVLDVLLEWFVKITEHPDGTDAAYYPSDNRDDSPEGIVKEIKEWRAANGKPGFKQG : reported pKd = ?
(A) 6.19
